# Tested on: Fibrinogen (Alexa647-labelled)
# assay: fibrinogen binders on compound microarrays, profiling panel, artefact control for SMM control-protein annotation, biochemical, small-molecule microarray, 635/667 nm fluorescence (AID 1131);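 note: z-score merges 667 nm fluorescence with per-spot signal-to-noise over triplicate slides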
# conditionNotes: fibrinogen-A647 binding fluorescence, higher = more signal
Classify by measured composite z-score: YES if it is equal to or exceeds 0.7, NO if it is smaller.

Recorded results for 3 compounds are shown here.
C=C(C(=O)CC[C@H](OC(=O)c1cccnc1)c1cccc(OCCO)c1)C(C)C : NO
COCCOC(=O)N1C(=O)[C@@]2(c3cc(C#Cc4ccc(OC)cc4)ccc31)[C@H](C(=O)N1CCN(c3ncccn3)CC1)[C@H]1C(=O)O[C@H](c3ccccc3)[C@H](c3ccccc3)N1[C@@H]2c1ccccc1OCCO : NO
CC(C)CN1C(=O)[C@@]2(Cc3ccccc31)c1ccccc1C(=O)N(Cc1ccccc1C(F)(F)F)[C@H]2c1ccc(CO)cc1 : NO

Prompt: Is reported composite z-score greater than or equal to 0.7 here: C=CC[C@@]1(C(=O)O)N=C(c2ccc(OCCCO)cc2)O[C@@H]1c1ccccc1
Response: NO

Prompt: Threshold query (composite z-score >= 0.7) on C=C(COC)/C(=C/C[C@@H](OC(=O)c1ccncc1)c1ccc(OCCO)cc1)c1cnc2ccccc2c1
Response: YES

Prompt: Could you please find out whether Cc1ccc(S[C@]2(C(=O)NC3CC3)CC(=O)N(Cc3ccccc3Cl)[C@@H]2c2ccc(CO)cc2I)cc1 has composite z-score that meets 0.7 or exceeds it?
Response: YES

Prompt: Check if composite z-score >= 0.7 (inclusive). Item: CC=CC(O)C1C=CC2C(=O)N(c3ccccc3)C(=O)C2N1Nc1ccccc1 (stereo unspecified)
Response: YES

Prompt: Dear colleague, could you confirm whether C=C(COC)/C(=C/C[C@@H](OC(=O)c1ccncc1)c1ccc(CO)o1)c1cnc2ccccc2c1 has composite z-score at or above 0.7?
Response: YES

Prompt: Check this compound for composite z-score at or above 0.7: COC(=O)[C@@]1(Cc2ccc(F)cc2)[C@H]2c3cc(C(=O)N4CCCC4)n(CCc4c[nH]c5ccc(OC)cc45)c3C[C@H]2CN1C(=O)c1ccccc1
Response: YES

* * *

# assay: anti-His antibody binders, primary screen, artefact control for SMM control protein annotation, biochemical, small-molecule microarray, 635 nm fluorescence (AID 1128);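 note: score merges feature fluorescence with signal-to-noise for each printed compound spot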
# conditionNotes: anti-His Alexa647 antibody binding, higher = more signal
quantity: composite z-score
One number for each entry.

These solved cases illustrate the format of a correct answer.
O=C1O[C@H](c2ccccc2)[C@H](c2ccccc2)N2[C@H]1[C@@H](C(=O)O)[C@]1(C(=O)Nc3ccccc31)[C@H]2c1ccc(O)cc1 : -0.585
CC=CC(O)C1C=CC2C(=O)N(c3ccccc3)C(=O)C2N1Nc1ccc([N+](=O)[O-])cc1 (configuration not stated) : 1.58
CCOC(=O)C1=CC[C@@H](c2cc(Cl)ccc2Cl)N(S(=O)(=O)c2ccc(C)cc2)[C@H]1c1ccc(OC)cc1 : -0.128
C[n+]1ccc(CCCO)cc1 : -0.278
CC(C)C(=C=CC[C@H](O)c1ccc(OCCO)cc1)C[C@H](O)c1cc(Cl)cc(Cl)c1O : 2.46

Dear colleague, could you send me composite z-score for each of the items below? Thanks.
1. COCCOC(=O)N1C(=O)[C@@]2(c3cc(C#Cc4ccc(OC)cc4)ccc31)[C@H](C(=O)NC[C@H](O)c1ccccc1)[C@H]1C(=O)O[C@H](c3ccccc3)[C@H](c3ccccc3)N1[C@@H]2c1ccc(O)cc1
2. CO[C@H]1O[C@H](CO)[C@@H](OC(=O)Nc2ccccc2-c2ccccc2)[C@H](OC(=O)Nc2ccc3c(c2)OCO3)[C@@H]1OC(=O)Nc1ccc2c(c1)OCO2

Response:
0.933
0.971
